System: H661 lung cancer cells
assay details: MTT cell viability assay, H661
Type: cell-based, human
condition description: H661, 96 h
pIC50: −log10 of the molar value.
property measured: pIC50

(1) Cc1ccc(C(=O)c2ccccc2NC(=O)/C=C/c2ccc(Cl)cc2)cc1 [Compound C6]
(2) Cc1ccc(NC(=O)/C=C/c2ccc(Cl)cc2)c(C(=O)c2ccccc2)c1 [Compound C4]
(Q) pIC50 comparison. Which is larger, 1 or 2 ? Mark your selection by writing its label.
(A) 2

###

System: A549 lung cancer cells
assay details: MTT cell viability assay, A549
Assay type: cell-based, human
condition description: A549, 48 h
property measured: IC50 (µM)
Write down the numeric answer in µM and omit the unit.

[[record]]
molecular_string = "Cc1ccc(NC(=O)/C=C/c2ccc(Cl)cc2)c(C(=O)c2ccccc2)c1"
property_measured = "IC50"
reported_result = 963


In the following, a different compound is considered.
(Q) Returns the measured IC50 for the input compound. Input: "O=C(/C=C/c1ccc(Cl)cc1)Nc1ccc(Cl)cc1C(=O)c1ccccc1"
(A) 251

###

assayed target: recombinant human MMP12 (Homo sapiens, UniProt P39900)
Construct: purchased Abcam
Sequence (P39900 106-470): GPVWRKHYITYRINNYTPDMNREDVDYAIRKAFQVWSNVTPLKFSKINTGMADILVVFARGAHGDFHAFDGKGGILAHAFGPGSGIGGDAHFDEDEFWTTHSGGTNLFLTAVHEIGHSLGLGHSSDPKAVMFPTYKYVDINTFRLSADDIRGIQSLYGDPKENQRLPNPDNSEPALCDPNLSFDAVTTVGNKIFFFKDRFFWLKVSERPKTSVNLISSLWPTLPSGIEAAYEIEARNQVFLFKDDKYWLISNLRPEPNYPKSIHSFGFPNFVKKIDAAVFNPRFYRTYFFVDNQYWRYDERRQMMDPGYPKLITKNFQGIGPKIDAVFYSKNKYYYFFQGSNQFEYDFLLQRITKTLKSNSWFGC
assay details: MMP12 colorimetric thiopeptide enzyme inhibition assay (Abcam)
Format: biochemical
condition description: at 50 µM
property measured: MMP12 enzyme inhibition (%)

[[record]]
molecular_string = "O=C(/C=C/c1ccc(Cl)cc1)Nc1ccccc1C(=O)c1ccccc1"
property_measured = "MMP12 enzyme inhibition"
reported_result = 11.5


(1) O=C(/C=C/c1ccc(Cl)cc1)Nc1cccc(C(=O)c2ccccc2)c1
(2) Cc1ccc(NC(=O)/C=C/c2ccc(Cl)cc2)c(C(=O)c2ccccc2)c1
(Q) Pick the one with the larger MMP12 enzyme inhibition: 1 vs 2 Identify your pick by its label.
(A) 1

###

System: H1299 lung cancer cells
assay details: MTT cell viability assay, H1299
Format: cell-based, human
condition description: Homo sapiens, NCI-H1299, 48 h, H1299, 48 h
Procedure: To evaluate the impact of MMP12 inhibitors on lung cancer cell lines, an MTT assay was performed on A549, H1299, and H661 cells exposed to varying concentrations of inhibitors over 48, 72, and 96 h. The lung cancer cell lines referenced as A549, H1299, and H661 were acquired from the American Type Culture Collection (ATCC, Manassas, VA, USA). Fibroblast cells of dermal origin were used as a model for normal human tissue, which were also purchased from ATCC. […]
property measured: pIC50
Note on units: pIC50 is unitless, being -log10 of a concentration expressed in mol/L.

(Q) I'd like to know its pIC50. The compound in question is O=C(/C=C/c1ccc(Cl)cc1)Nc1ccc(C(=O)c2ccccc2)cc1 [Compound C1]
(A) 3.45

###

Tested on: H1299 lung cancer cells
assay details: MTT cell viability assay, H1299
Type: cell-based, human
condition description: H1299, 48 h
pIC50: −log10 of the molar value.
property measured: pIC50

These recorded examples may help you get a feel for the data.
[[record]]
molecular_string = "Cc1ccc(NC(=O)/C=C/c2ccc(Cl)cc2)c(C(=O)c2ccccc2)c1"
property_measured = "pIC50"
reported_result = 3.21

[[record]]
molecular_string = "O=C(/C=C/c1ccc(Cl)cc1)Nc1cccc(C(=O)c2ccccc2)c1"
property_measured = "pIC50"
reported_result = 3.08

[[record]]
molecular_string = "O=C(/C=C/c1ccc(Cl)cc1)Nc1ccc(Cl)cc1C(=O)c1ccccc1"
property_measured = "pIC50"
reported_result = 3.25


(A) O=C(/C=C/c1ccc(Cl)cc1)Nc1ccccc1C(=O)c1ccccc1
(B) Cc1ccc(C(=O)c2ccccc2NC(=O)/C=C/c2ccc(Cl)cc2)cc1
(Q) Endpoint returns the identifier whose pIC50 is numerically larger, either A or B . Respond with the label that goes with your answer.
(A) B
(B: 3.44, A: 3.20)
